biological target: Cytochrome P450 2C9 (Homo sapiens); experiment: blockers of cytochrome P450 2C9 activity – biochemical, luminescence, ADME assay, primary screen (AID 777); details: CYP2C9 Supersomes, luciferin-H conversion, at 5 µM
In all, about 96,000 compounds went through this assay and about 19,000 (20%) were called active.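 Rule for the calls: active = blocking of liver enzyme CYP2C9 beyond about 50% at 5 µM (limit read from the data); inactive = the rest.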 Not all results are given here.
Hi there, use one of these labels in your reply, thanks! active, inactive

Solved entries (count: 6):
QUERY: I would be grateful if you could indicate the recorded call for `COCCCn1c(SCc2cccc(OC)c2)nc2cc(OC)c(OC)cc2c1=N` .
RESULT: active

QUERY: I would be grateful if you could indicate the recorded call for `O=C(Nc1ccon1)c1sc2ccccc2c1Cl` .
RESULT: inactive

QUERY: I would be grateful if you could indicate the recorded call for CCC(C)c1ccc(O)c(/C=N/O)c1 (configuration not stated) .
RESULT: inactive

QUERY: I would be grateful if you could indicate the recorded call for `N=c1c2c(-c3ccccc3)c(-c3ccccc3)oc2ncn1Cc1ccco1` .
RESULT: inactive

QUERY: I would be grateful if you could indicate the recorded call for CC1CCCCC1NC(=O)CCS(=O)(=O)c1cccc2nonc12 (configuration not stated) .
RESULT: inactive

QUERY: I would be grateful if you could indicate the recorded call for `O=C(NCCOc1ccccc1)c1ccccc1` .
RESULT: inactive

More entries:
QUERY: I would be grateful if you could indicate the recorded call for `Cc1ccc(OCC(=O)N/N=C/c2ccncc2)cc1` .
RESULT: active

QUERY: I would be grateful if you could indicate the recorded call for COc1cccc(C(CC(=O)NCCN2CCOCC2)NS(=O)(=O)c2ccc(C)cc2)c1OC (configuration not stated) .
RESULT: inactive

QUERY: I would be grateful if you could indicate the recorded call for `COc1ccc(Cc2nnc(SC)[nH]c2=O)cc1` .
RESULT: inactive

QUERY: I would be grateful if you could indicate the recorded call for `N#Cc1c(NC(=O)CCCN2C(=O)c3ccccc3C2=O)oc(-c2ccccc2)c1-c1ccccc1` .
RESULT: active

QUERY: I would be grateful if you could indicate the recorded call for `Cc1cc(C)c(OCC(=O)N/N=C/c2ccco2)c(C)c1` .
RESULT: inactive

QUERY: I would be grateful if you could indicate the recorded call for `O=C(CCCN1C(=O)c2ccccc2C1=O)Oc1ccc(Cl)cc1` .
RESULT: inactive

###

target: Cytochrome P450 2C9 (Homo sapiens) (UniProt P11712); experiment: blockers of cytochrome P450 2C9 activity – biochemical, luminescence, ADME assay, primary screen (AID 777); details: CYP2C9 Supersomes, luciferin-H conversion, at 5 µM, active compounds read high
Sequence (P11712 whole entry, looked up): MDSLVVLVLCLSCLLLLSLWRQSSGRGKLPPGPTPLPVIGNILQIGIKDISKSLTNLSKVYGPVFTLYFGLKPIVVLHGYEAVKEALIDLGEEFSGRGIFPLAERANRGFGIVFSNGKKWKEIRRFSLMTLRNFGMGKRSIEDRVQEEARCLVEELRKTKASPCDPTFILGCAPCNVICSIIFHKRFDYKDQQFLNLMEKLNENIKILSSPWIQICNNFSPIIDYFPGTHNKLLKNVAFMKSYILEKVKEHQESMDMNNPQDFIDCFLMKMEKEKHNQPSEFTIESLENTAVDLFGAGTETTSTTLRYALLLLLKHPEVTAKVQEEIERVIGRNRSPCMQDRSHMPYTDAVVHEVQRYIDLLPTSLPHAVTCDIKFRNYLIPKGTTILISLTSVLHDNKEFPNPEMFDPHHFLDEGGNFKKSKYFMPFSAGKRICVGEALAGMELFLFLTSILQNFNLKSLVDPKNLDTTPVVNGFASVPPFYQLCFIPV
In all, about 96,000 compounds went through this assay and about 19,000 (20%) were called active. The list is a sample of the results.
Classify as follows. Reported inhibition greater than or equal to 10%: satisfied. Reported inhibition below: not satisfied.

Solved entries (count: 5):
QUERY: Kindly determine if inhibition recorded for `N=c1ccn(CC(=O)NC(N)=O)c2ccccc12` is above or exactly 10%.
RESULT: not satisfied

QUERY: Kindly determine if inhibition recorded for `Cc1ccc(S(=O)(=O)n2nc(OC(=O)C(C)(C)C)cc2N)cc1` is above or exactly 10%.
RESULT: satisfied

QUERY: Kindly determine if inhibition recorded for `O=S(=O)(c1cccc(-c2nnc(SC(F)F)n2-c2ccccc2)c1)N1CCCCC1` is above or exactly 10%.
RESULT: satisfied

QUERY: Kindly determine if inhibition recorded for `COc1ccc(OC)c(C(=O)c2coc3ccc(O)c(CN4CCOCC4)c23)c1` is above or exactly 10%.
RESULT: satisfied

QUERY: Kindly determine if inhibition recorded for `CCOC(=O)c1cc2cc(C)ccc2[nH]1` is above or exactly 10%.
RESULT: satisfied

More entries:
QUERY: Kindly determine if inhibition recorded for `CCCCNc1nc2ccccc2nc1NS(=O)(=O)c1cccs1` is above or exactly 10%.
RESULT: satisfied

QUERY: Kindly determine if inhibition recorded for `COc1ccc2occ(C(=O)c3ccc(N=C(C)N(C)C)cc3)c2c1` is above or exactly 10%.
RESULT: not satisfied

QUERY: Kindly determine if inhibition recorded for `COc1ccc(OC)c(C(=O)c2coc3ccc(OC)cc23)c1` is above or exactly 10%.
RESULT: satisfied

QUERY: Kindly determine if inhibition recorded for COc1ccc(C(CC(=O)O)NC(=O)Cc2ccccc2)cc1 (stereo unspecified) is above or exactly 10%.
RESULT: not satisfied

QUERY: Kindly determine if inhibition recorded for `Cc1ccc(O)c(NC(=O)COc2cc(C)ccc2C)c1` is above or exactly 10%.
RESULT: not satisfied

QUERY: Kindly determine if inhibition recorded for `Nc1cc(OC(=O)c2ccccc2Br)nn1S(=O)(=O)c1ccccc1` is above or exactly 10%.
RESULT: satisfied

###

target: Cytochrome P450 2C9 (Homo sapiens) (UniProt P11712); assay: blockers of cytochrome P450 2C9 activity – biochemical, luminescence, ADME assay, primary screen (AID 777); conditions: CYP2C9 Supersomes, luciferin-H conversion, at 5 µM, active compounds read high
About 19,000 (20%) of roughly 96,000 compounds were called active. A selection follows.
assay-endpoint: inhibition (%)
Reply numerically in %, unit not repeated.

QUERY: Request the reported inhibition associated with CCCOP(=O)(c1ccc(N(C)C)cc1)C(O)c1cc(OC)c(OC)c(OC)c1 (stereo not drawn)
RESULT: -3.1

More entries:
QUERY: Request the reported inhibition associated with `CCOC(=O)CSc1nccc(N(C)C)c1C#N`
RESULT: -35

QUERY: Request the reported inhibition associated with O=C(CC1Nc2ccccc2NC1=O)Nc1ccccc1 (stereo not drawn)
RESULT: 6.5

QUERY: Request the reported inhibition associated with `Cc1cccc(NC(=O)CN2C(=O)CNC2=O)c1`
RESULT: -16.3

QUERY: Request the reported inhibition associated with `O=S1(=O)C=C(SCCN2CCCC2)c2ccccc21`
RESULT: 14

QUERY: Request the reported inhibition associated with `C#CCN(N(C)c1ncc(C(F)(F)F)cc1Cl)S(=O)(=O)c1ccc2ccccc2c1`
RESULT: 48.7

QUERY: Request the reported inhibition associated with `O=C(O)CCCC(=O)Nc1ccccc1-n1ccnc1`
RESULT: 0.8

QUERY: Request the reported inhibition associated with `CC(C)(C)c1csc(NC2=NS(=O)(=O)c3ccccc32)n1`
RESULT: 17.4

QUERY: Request the reported inhibition associated with Cc1cccc(NC(=O)C(C)N2C(=O)C3C4CC(C(Br)C4Br)C3C2=O)c1 (stereo not drawn)
RESULT: 51.6

QUERY: Request the reported inhibition associated with Cc1cc(NC(=O)CN2CCCC(C)C2)n(-c2nc3ccccc3s2)n1 (stereo not drawn)
RESULT: 22.2

QUERY: Request the reported inhibition associated with `O=C(CCN1C(=O)c2ccncc2C1=O)Nc1ccc2c(c1)OCCO2`
RESULT: -3.9

QUERY: Request the reported inhibition associated with `CCC(CC)c1nnc(NS(=O)(=O)Cc2ccccc2)s1`
RESULT: 34.3

QUERY: Request the reported inhibition associated with Cc1nc(NC(=O)C23CCC(C)(C(=O)O2)C3(C)C)sc1C (stereo not drawn)
RESULT: -3.9

QUERY: Request the reported inhibition associated with `CN(c1ccccc1)c1ccc(/C=c2\s/c(=C(/C#N)C(=O)C(C)(C)C)n(Cc3ccco3)c2=O)cc1`
RESULT: 41.9

QUERY: Request the reported inhibition associated with O=C(OC1CCOC1=O)c1ccc(-c2nc3ccccc3s2)s1 (stereo not drawn)
RESULT: 4.9

QUERY: Request the reported inhibition associated with COc1ccccc1NC(=O)C1=C(C)Nc2nnnn2C1c1cccc(Br)c1 (stereo not drawn)
RESULT: 41

###

target: Cytochrome P450 2C9 (Homo sapiens) (UniProt P11712); test: blockers of cytochrome P450 2C9 activity – biochemical, luminescence, ADME assay, primary screen (AID 777); settings: CYP2C9 Supersomes, luciferin-H conversion, at 5 µM, active compounds read high
Hit rate of the full screen: of about 96,000 compounds, about 19,000 (20%) were called active. The list is a sample of the results.
assay-endpoint: inhibition (%)
Reply numerically in %, unit not repeated.

Consider the worked cases shown below.
QUERY: Request the reported inhibition associated with `Cc1[nH]nc(-c2ccc(OCc3cnn(-c4ccccc4)c3)cc2O)c1Oc1ccc(Cl)cc1`
RESULT: 66.2

QUERY: Request the reported inhibition associated with `c1ccc(CSc2nnc(-c3ccco3)c(-c3ccco3)n2)cc1`
RESULT: 72.9

QUERY: Request the reported inhibition associated with `Clc1ccccc1CSc1nnc(-c2ccco2)c(-c2ccco2)n1`
RESULT: 38.8

QUERY: Request the reported inhibition associated with O=C(C(NS(=O)(=O)c1cccc2nsnc12)c1ccccc1)N1CCN(c2ccccc2)CC1 (stereo not drawn)
RESULT: 97.4

More entries:
QUERY: Request the reported inhibition associated with `Cn1c(COc2ccc(Cl)cc2)nc2ccccc2c1=O`
RESULT: 43.9

QUERY: Request the reported inhibition associated with O=C1c2ccccc2NC(c2ccc(-c3cccc(Cl)c3)o2)N1O (stereo not drawn)
RESULT: 52.4

QUERY: Request the reported inhibition associated with `CCCCCCC(=O)Nc1nc(C)c(-c2csc(Nc3cccc(OC)c3)n2)s1`
RESULT: 19.4

QUERY: Request the reported inhibition associated with `O=C(NC1CC1)c1ccc2c(c1)NC(=O)c1ccccc1S2`
RESULT: 11.1

QUERY: Request the reported inhibition associated with `N#Cc1c(N)n(CCOC(=O)c2ccc(Cl)cc2)c2nc3ccccc3nc12`
RESULT: 14.9

QUERY: Request the reported inhibition associated with `CCOc1ccc(NC(=O)Nc2ccc(N(C)C(C)=O)cc2)cc1`
RESULT: -6.3
